Recorded values, source ChEMBL document CHEMBL4261615.

Quick list: pIC50 per entry.
# TESTED ON: Tyrosine-protein kinase Mer (Homo sapiens)
# Sequence (Q12866 whole entry): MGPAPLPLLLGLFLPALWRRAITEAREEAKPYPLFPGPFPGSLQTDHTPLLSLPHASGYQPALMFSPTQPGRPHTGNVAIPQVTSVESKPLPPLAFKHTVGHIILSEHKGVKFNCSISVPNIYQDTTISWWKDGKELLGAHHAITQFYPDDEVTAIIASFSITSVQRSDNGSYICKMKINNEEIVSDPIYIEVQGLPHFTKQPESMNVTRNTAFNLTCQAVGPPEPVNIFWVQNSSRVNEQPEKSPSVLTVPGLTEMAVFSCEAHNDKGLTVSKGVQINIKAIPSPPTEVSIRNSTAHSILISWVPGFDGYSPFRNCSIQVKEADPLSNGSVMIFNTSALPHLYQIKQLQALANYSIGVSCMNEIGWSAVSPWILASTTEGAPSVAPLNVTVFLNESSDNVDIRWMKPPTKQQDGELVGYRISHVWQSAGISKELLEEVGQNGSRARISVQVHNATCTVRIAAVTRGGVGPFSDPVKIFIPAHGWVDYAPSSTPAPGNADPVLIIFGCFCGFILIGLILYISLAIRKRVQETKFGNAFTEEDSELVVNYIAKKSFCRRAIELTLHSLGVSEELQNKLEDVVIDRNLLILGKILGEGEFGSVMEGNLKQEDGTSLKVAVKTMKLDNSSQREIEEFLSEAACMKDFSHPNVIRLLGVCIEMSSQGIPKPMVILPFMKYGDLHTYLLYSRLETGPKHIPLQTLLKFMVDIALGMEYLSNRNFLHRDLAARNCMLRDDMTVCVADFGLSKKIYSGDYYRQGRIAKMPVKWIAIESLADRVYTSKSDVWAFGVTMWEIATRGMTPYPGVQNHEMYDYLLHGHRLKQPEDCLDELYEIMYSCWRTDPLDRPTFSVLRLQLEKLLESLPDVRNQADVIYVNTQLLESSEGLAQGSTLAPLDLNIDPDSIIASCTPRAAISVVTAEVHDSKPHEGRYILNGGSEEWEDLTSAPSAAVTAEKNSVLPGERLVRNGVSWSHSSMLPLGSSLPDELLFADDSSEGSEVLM
# ASSAY INFO: Inhibition of recombinant GST-tagged human Mer (578 to 872 residues) cytoplasmic domain expressed in Baculovirus system using poly (Glu-Ala-Tyr) peptide as substrate after 5 mins in presence of ADP by fluorescence analysis
// field semantics: pIC50 = negative decimal log of concentration (mol/L)

Record excerpt, results attached:
>  <SMILES INPUT>
O=C(Nc1ccc(Oc2ccnc3[nH]cnc23)c(F)c1)c1cccn(-c2ccc(F)cc2)c1=O

>  <NUMERIC READOUT>
7.05

$$$$
>  <SMILES INPUT>
CC(C)c1nc2c(Oc3ccc(NC(=O)c4cccn(-c5ccc(F)cc5)c4=O)cc3F)ccnc2[nH]1

>  <NUMERIC READOUT>
7.40

$$$$

Attention now turns to another entry.
Input: What measured pIC50 goes with `O=C(Nc1ccc(Oc2c(Br)cnc3[nH]cnc23)c(F)c1)c1cccn(-c2ccc(F)cc2)c1=O` ?
Output: 8.05

---

# TESTED ON: UniProt:P00519
# Sequence (P00519 whole entry, the tested form may be a part): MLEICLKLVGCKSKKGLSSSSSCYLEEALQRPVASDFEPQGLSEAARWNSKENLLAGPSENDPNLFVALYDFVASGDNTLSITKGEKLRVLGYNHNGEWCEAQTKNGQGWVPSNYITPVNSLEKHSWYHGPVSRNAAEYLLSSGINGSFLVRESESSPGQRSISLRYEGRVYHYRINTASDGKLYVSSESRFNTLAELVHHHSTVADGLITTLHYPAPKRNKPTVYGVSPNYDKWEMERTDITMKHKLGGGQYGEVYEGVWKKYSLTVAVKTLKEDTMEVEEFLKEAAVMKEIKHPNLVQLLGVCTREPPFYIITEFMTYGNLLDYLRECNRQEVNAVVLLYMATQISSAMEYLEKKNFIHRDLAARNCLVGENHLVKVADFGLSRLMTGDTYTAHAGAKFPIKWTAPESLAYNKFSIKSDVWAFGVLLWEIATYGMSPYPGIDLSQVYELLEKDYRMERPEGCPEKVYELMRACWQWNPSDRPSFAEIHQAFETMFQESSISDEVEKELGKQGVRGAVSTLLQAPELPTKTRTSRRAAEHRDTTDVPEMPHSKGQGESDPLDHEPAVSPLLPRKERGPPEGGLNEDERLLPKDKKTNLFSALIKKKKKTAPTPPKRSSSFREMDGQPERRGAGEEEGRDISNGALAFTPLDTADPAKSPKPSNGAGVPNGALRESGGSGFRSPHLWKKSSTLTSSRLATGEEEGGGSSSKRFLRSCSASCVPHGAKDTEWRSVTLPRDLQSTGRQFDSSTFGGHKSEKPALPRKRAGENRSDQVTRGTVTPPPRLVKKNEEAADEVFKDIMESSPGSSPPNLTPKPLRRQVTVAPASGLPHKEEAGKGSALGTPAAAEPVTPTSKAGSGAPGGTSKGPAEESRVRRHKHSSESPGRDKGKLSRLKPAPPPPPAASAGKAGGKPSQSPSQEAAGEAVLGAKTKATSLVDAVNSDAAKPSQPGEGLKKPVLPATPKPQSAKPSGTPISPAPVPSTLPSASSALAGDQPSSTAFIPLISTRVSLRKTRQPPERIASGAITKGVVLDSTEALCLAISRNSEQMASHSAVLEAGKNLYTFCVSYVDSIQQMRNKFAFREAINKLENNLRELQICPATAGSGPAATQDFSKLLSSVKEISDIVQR
# ASSAY INFO: Binding affinity to human wild type ABL1 (229 to 512 residues) expressed in mammalian expression system assessed as fraction of unbound kinase to substrate at 0.1 uM after 1 hr by KinomeScan assay
Quick list: Activity per entry.
Please respond with the number in % and leave the unit unwritten.

>  <SMILES INPUT>
Cc1cnc2[nH]cnc2c1Oc1ccc(NC(=O)c2cccn(-c3ccc(F)cc3)c2=O)cc1F

>  <Activity [%]>
1

$$$$
>  <SMILES INPUT>
O=C(Nc1ccc(Oc2ccnc3[nH]cnc23)c(F)c1)c1cccn(-c2ccc(F)cc2)c1=O

>  <Activity [%]>
2

$$$$
>  <SMILES INPUT>
CC(C)c1nc2c(Oc3ccc(NC(=O)c4cccn(-c5ccc(F)cc5)c4=O)cc3F)ccnc2[nH]1

>  <Activity [%]>
1

$$$$

Attention now turns to another entry.
Input: What measured Activity goes with `O=C(Nc1ccc(Oc2c(Br)cnc3[nH]cnc23)c(F)c1)c1cccn(-c2ccc(F)cc2)c1=O` ?
Output: 0

---

# TESTED ON: Tyrosine-protein kinase receptor UFO (Homo sapiens)
# ASSAY INFO: Inhibition of recombinant His-tagged human Axl (473 to end residues) cytoplasmic domain expressed in insect system using poly (Glu-Ala-Tyr) peptide as substrate after 1.5 hrs by ELISA
Calls of active or inactive are those of the source. No cut-off for these calls is given here.
Output constraint: value belongs to TRUE for active, FALSE for inactive

Input: Status in this test for `CC(C)c1nc2c(Oc3ccc(NC(=O)c4cccn(-c5ccc(F)cc5)c4=O)cc3F)c(-c3ccncc3)cnc2[nH]1` ?
Output: FALSE

Input: Status in this test for `CC(C)c1nc2c(Oc3ccc(NC(=O)c4cccn(-c5ccc(F)cc5)c4=O)cc3F)c(-c3ccc(N(C)C)cc3)cnc2[nH]1` ?
Output: FALSE

---

# TESTED ON: Tyrosine-protein kinase ABL1 (Homo sapiens)
# ASSAY INFO: Binding affinity to human wild type ABL1 (229 to 512 residues) expressed in mammalian expression system assessed as fraction of unbound kinase to substrate at 1 uM after 1 hr by KinomeScan assay
Quick list: Activity per entry.
Lab note: write values as number then unit, every time.

Record excerpt, results attached:
>  <SMILES INPUT>
O=C(Nc1ccc(Oc2ccnc3[nH]cnc23)c(F)c1)c1cccn(-c2ccc(F)cc2)c1=O

>  <TESTED ON>
Tyrosine-protein kinase ABL1 (Homo sapiens)

>  <Activity>
13%

$$$$
>  <SMILES INPUT>
CC(C)c1nc2c(Oc3ccc(NC(=O)c4cccn(-c5ccc(F)cc5)c4=O)cc3F)ccnc2[nH]1

>  <TESTED ON>
Tyrosine-protein kinase ABL1 (Homo sapiens)

>  <Activity>
3%

$$$$
>  <SMILES INPUT>
Cc1cnc2[nH]cnc2c1Oc1ccc(NC(=O)c2cccn(-c3ccc(F)cc3)c2=O)cc1F

>  <TESTED ON>
Tyrosine-protein kinase ABL1 (Homo sapiens)

>  <Activity>
1%

$$$$

Attention now turns to another entry.
Input: Please provide the recorded Activity for `O=C(Nc1ccc(Oc2c(Br)cnc3[nH]cnc23)c(F)c1)c1cccn(-c2ccc(F)cc2)c1=O` , tested on Tyrosine-protein kinase ABL1 (Homo sapiens).
Output: 0%

---

# TESTED ON: Tyrosine-protein kinase receptor UFO (Homo sapiens) (UniProt P30530)
# Sequence (P30530 whole entry, the tested form may be a part): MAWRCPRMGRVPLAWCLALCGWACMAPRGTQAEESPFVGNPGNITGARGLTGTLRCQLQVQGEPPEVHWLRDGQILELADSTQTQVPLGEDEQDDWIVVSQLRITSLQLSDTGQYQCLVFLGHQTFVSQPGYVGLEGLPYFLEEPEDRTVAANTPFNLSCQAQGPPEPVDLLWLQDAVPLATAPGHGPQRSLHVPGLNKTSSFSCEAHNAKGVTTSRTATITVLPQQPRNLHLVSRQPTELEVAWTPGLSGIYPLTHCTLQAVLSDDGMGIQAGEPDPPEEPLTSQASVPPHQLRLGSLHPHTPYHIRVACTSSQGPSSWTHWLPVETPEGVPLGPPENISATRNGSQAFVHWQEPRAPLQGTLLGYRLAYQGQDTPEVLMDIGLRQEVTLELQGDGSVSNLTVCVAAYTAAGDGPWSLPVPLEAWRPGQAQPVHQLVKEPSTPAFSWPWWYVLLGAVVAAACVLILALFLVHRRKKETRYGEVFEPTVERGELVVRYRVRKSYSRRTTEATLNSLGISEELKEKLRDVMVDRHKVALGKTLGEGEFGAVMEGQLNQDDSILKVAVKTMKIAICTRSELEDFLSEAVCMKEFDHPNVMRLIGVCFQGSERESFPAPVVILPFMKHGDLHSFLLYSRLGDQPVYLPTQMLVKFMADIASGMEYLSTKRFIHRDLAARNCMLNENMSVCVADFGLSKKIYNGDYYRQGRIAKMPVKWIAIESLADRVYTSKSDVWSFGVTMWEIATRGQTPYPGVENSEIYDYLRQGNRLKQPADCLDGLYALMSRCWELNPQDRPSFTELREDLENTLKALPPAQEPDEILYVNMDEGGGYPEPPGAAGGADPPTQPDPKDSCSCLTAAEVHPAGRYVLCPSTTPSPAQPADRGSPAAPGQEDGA
# ASSAY INFO: Inhibition of recombinant His-tagged human Axl (473 to end residues) cytoplasmic domain expressed in insect system using poly (Glu-Ala-Tyr) peptide as substrate after 1.5 hrs by ELISA
The source made the active and inactive calls. No cut-off for these calls is given here.
Output constraint: value belongs to True (active), False (inactive)

These solved cases illustrate the format of a correct answer.
>  <SMILES INPUT>
CCc1nc2c(Oc3ccc(NC(=O)c4cccn(-c5ccc(F)cc5)c4=O)cc3F)c(-c3ccc(N(C)C)cc3)cnc2[nH]1

>  <ASSIGNED CATEGORY>
False

$$$$
>  <SMILES INPUT>
CC(C)c1nc2c(Oc3ccc(NC(=O)c4cccn(-c5ccc(F)cc5)c4=O)cc3F)c(-c3cccnc3)cnc2[nH]1

>  <ASSIGNED CATEGORY>
False

$$$$
>  <SMILES INPUT>
O=C(Nc1ccc(Oc2ccnc3[nH]cnc23)c(F)c1)c1cccn(-c2ccc(F)cc2)c1=O

>  <ASSIGNED CATEGORY>
True

$$$$
>  <SMILES INPUT>
CCc1nc2c(Oc3ccc(NC(=O)c4cccn(-c5ccc(F)cc5)c4=O)cc3F)c(-c3ccoc3)cnc2[nH]1

>  <ASSIGNED CATEGORY>
False

$$$$
>  <SMILES INPUT>
Cc1cnc2[nH]cnc2c1Oc1ccc(NC(=O)c2cccn(-c3ccc(F)cc3)c2=O)cc1F

>  <ASSIGNED CATEGORY>
False

$$$$

Input: Status in this test for `CCc1nc2c(Oc3ccc(NC(=O)c4cccn(-c5ccc(F)cc5)c4=O)cc3F)c(-c3ccncc3)cnc2[nH]1` ?
Output: False

Input: Status in this test for `CC(C)c1nc2c(Oc3ccc(NC(=O)c4cccn(-c5ccc(F)cc5)c4=O)cc3F)c(-c3ccoc3)cnc2[nH]1` ?
Output: False

Input: Status in this test for `CC(C)c1nc2c(Oc3ccc(NC(=O)c4cccn(-c5ccc(F)cc5)c4=O)cc3F)c(-c3ccc(O)cc3)cnc2[nH]1` ?
Output: False
